src = ChEMBL document CHEMBL5291721

Molecular target: 5-hydroxytryptamine receptor 1A (Homo sapiens, UniProt P08908); also: assay procedure not described here
Sequence (P08908 whole entry): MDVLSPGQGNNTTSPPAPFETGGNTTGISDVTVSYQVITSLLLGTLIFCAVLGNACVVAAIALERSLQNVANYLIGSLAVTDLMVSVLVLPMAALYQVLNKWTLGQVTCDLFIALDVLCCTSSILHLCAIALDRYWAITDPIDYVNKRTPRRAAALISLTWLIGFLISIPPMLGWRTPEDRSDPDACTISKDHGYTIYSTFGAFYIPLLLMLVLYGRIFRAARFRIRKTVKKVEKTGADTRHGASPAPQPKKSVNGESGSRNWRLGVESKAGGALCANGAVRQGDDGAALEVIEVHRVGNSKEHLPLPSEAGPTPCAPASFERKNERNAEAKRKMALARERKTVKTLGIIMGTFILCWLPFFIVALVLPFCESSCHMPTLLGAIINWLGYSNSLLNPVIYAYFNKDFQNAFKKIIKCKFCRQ
Assay type: functional, cell-based
Where a SMILES comes first, the peptide text is derived from it.
Catalogue of AC50 readings, one per entry.

- molecule: "CN1C(=O)CN=C(c2ccccc2F)c2cc([N+](=O)[O-])ccc21 [FLUNITRAZEPAM]"
  parameter measured: "AC50"
  result value: "> 10 µM"
- molecule: "Nc1cc(N2CCCCC2)nc(N)[n+]1[O-] [MINOXIDIL]"
  parameter measured: "AC50"
  result value: "> 30 µM"
- molecule: "C[C@H](N)C(=O)N[C@@H](CCC(N)=O)C(=O)O [ALANYL GLUTAMINE] (H-Ala-Gln-OH)"
  parameter measured: "AC50"
  result value: "> 30 µM"
- molecule: "CC1=C(/C=C/C(C)=C/C=C/C(C)=C/C(=O)Oc2c(C)c(C)c3c(c2C)CCC(C)(CCCC(C)CCCC(C)CCCC(C)C)O3)C(C)(C)CCC1 (configuration not stated) [TRETINOIN TOCOFERIL]"
  parameter measured: "AC50"
  result value: "> 30 µM"
- molecule: "CC1=C(CC(=O)O)c2cc(F)ccc2/C1=C\\c1ccc([S+](C)[O-])cc1 (configuration not stated)"
  parameter measured: "AC50"
  result value: "> 10 µM"
- molecule: "COc1cc2c(cc1OC)C1CC(=O)C(CC(C)C)CN1CC2 (configuration not stated) [TETRABENAZINE]"
  parameter measured: "AC50"
  result value: "18 µM"
- molecule: "CC(C)(CO)c1cc2cc(NC(=O)C3(c4ccc5c(c4)OC(F)(F)O5)CC3)c(F)cc2n1C[C@@H](O)CO [TEZACAFTOR]"
  parameter measured: "AC50"
  result value: "> 30 µM"
- molecule: "O=C(O)CCCC[C@@H]1SC[C@@H]2NC(=O)N[C@@H]21 [BIOTIN]"
  parameter measured: "AC50"
  result value: "> 10 µM"
- molecule: "C[C@]12CCC(=O)C=C1[C@@H]1C[C@@H]1[C@H]1[C@@H]3[C@@H]4C[C@@H]4[C@@]4(CCC(=O)O4)[C@@]3(C)CC[C@@H]12 [DROSPIRENONE]"
  parameter measured: "AC50"
  result value: "> 30 µM"
- molecule: "O=C(O)c1nn(Cc2ccc(Cl)cc2Cl)c2ccccc12 [LONIDAMINE]"
  parameter measured: "AC50"
  result value: "> 30 µM"

Qu. Please report the recorded AC50 for CN1CCCN=C1/C=C/c1cccc(O)c1 [OXANTEL] .
Ans. > 30 µM

Qu. Could you do the same for CNCCc1ccccn1 [BETAHISTINE] , please?
Ans. > 30 µM

Qu. Could you do the same for C[C@@H](Cc1ccccc1)N(C)Cc1ccccc1 [BENZPHETAMINE] , please?
Ans. > 10 µM

Qu. Could you do the same for CCC1(CC)C(=O)NC(=O)N(C)C1=O [METHARBITAL] , please?
Ans. > 10 µM

Qu. Could you do the same for CCN(CC)Cc1nccn1-c1ccc([N+](=O)[O-])cc1C(=O)c1ccccc1Cl [NIZOFENONE] , please?
Ans. > 30 µM

Qu. Could you do the same for COc1ccc(-n2nc(C(N)=O)c3c2C(=O)N(c2ccc(N4CCCCC4=O)cc2)CC3)cc1 [APIXABAN] , please?
Ans. > 30 µM

Qu. Could you do the same for CC1Cc2ccccc2N1NC(=O)c1ccc(Cl)c(S(N)(=O)=O)c1 (configuration not stated) [INDAPAMIDE] , please?
Ans. > 30 µM
